- SYSTEM: T1, Botulinum neurotoxin serotype C (BoNT/C) (Clostridium botulinum, UniProt P18640 2-1291)
- T1 sequence: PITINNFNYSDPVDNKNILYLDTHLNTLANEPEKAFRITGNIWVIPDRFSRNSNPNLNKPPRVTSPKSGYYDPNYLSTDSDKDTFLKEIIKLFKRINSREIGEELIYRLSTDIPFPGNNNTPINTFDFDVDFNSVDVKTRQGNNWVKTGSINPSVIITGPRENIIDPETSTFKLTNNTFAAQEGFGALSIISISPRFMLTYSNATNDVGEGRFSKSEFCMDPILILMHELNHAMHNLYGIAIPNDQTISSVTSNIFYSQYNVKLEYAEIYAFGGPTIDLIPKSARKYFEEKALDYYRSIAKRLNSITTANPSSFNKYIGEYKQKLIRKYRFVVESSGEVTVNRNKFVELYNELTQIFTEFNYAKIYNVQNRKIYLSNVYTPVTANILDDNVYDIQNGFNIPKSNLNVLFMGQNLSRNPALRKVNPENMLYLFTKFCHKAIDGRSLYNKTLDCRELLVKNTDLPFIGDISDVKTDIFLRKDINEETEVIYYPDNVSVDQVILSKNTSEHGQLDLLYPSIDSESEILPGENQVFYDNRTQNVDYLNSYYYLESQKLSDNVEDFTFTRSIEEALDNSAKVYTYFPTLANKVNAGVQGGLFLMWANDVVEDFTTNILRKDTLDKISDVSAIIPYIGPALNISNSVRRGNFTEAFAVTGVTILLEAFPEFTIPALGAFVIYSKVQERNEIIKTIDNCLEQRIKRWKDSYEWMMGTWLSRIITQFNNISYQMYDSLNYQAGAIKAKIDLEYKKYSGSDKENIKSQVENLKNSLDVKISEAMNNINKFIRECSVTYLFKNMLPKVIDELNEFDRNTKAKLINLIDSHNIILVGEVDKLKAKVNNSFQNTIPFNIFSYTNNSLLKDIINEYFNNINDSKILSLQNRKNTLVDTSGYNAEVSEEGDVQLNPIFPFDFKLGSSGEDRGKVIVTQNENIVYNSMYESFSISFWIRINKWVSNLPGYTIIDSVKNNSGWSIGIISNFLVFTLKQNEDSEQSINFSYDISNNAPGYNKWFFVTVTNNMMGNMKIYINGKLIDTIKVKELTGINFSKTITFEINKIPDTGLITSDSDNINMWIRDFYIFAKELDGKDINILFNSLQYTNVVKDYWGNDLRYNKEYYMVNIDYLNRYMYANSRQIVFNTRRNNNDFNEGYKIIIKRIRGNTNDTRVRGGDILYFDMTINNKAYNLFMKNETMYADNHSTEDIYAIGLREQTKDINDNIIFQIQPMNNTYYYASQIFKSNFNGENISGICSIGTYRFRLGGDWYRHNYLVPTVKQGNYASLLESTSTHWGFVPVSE
- EXPERIMENT DESCRIPTION: range-finding KinExA, IgG
MEASURED QUANTITY: Kd (nM)
The answer is to be given in nM; state only the numeric part.

Some binders with known Kd results, for comparison:
BINDER	Kd / nM
4C10.18 IgG (antibody, V domains shown) VH: QVQLVQSGGGVAQPGRSLRLSCGASRFTFSGFDMHWVRQAPGKGLEWVARISHDGSMADYADSLRGRFTISRDNSKNTLYLQMNSLRVEDTALYYCAKDRWRSGSYPAFEIWGQGTMVTVSS VL: EIVLTQSPSFLSAFVGDRITITCRASQGIGNRLAWYQQKPGKAPNLLIHPASTLQSGVPSRFSGSGSGTDFTLTISSLQPEDFATYYCQQAHRFPLTFGGGTKVEIKR	0.0108
4C10.5 IgG (antibody, V domains shown) VH: QVQLVQSGGGVVQPGRSLRLSCGASRFTFSGFDMHWVRQAPGKGLEWVARISHDGSMADYADSLRGRFTISRDNSKNTLYLQMNSLRVEDTALYYCAKDRWRSGSYPAFEIWGQGTMVTVSS VL: EIVLTQSPSFLSAFVGDRITITCRASQGISNRLAWYQQKPGKAPNLLIHPASTLQSGVPSRFSGSGSGTDFTLTISSLQPEDFATYYCQQANSFPLTFGGGTKVEIKR	0.0651
4C10.17 IgG (antibody, V domains shown) VH: QVQLVQSGGGVVQPGRSLRLSCGASRFTFSGFDMHWVRQAPGKGLEWVARISHDGSMADYADSLRGRFTISRDNSKNTLYLQMNSLRVEDTALYYCAKDRWRSGSYPAFEIWGQGTMVTVSS VL: EIVLTQSPSFLSAFVGDRITITCRASQGISNRLAWYQQKPGKAPNLLIHPASSLQSGVPSRFSGSGSGTDFTLTISSLQPEDFATYYCQQANSFPLTFGGGTKVEIKR	0.0325

*Q* State its Kd for this binder: 4C10.15 IgG (antibody, V domains shown) VH: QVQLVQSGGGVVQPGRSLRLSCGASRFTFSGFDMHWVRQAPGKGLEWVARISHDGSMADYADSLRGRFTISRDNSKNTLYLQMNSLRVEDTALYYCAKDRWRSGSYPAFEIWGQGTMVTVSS VL: EIVLTQSPSFLSAFVGDRITITCRASKGIGNRLAWYQQKPGKAPNLLIHPASTLQSGVPSRFSGSGSGTDFTLTISSLQPEDFATYYCQQANSFPLTFGGGTKVEIKR
*A* 0.0122

*Q* State its Kd for this binder: 4C10.23 IgG (antibody, V domains shown) VH: QVQLVQSGGGVVQPGRSLRLSCGASGFKFSGFDMHWVRQAPGKGLEWVARISHDGSMADYADSLRGRFTISRDNSKNTLYLQMNSLRVEDTALYYCAKDRWRSGSYPAFEIWGQGTMVTVSS VL: EIVLTQSPSFLSAFVGDRITITCRASKGIGNRLAWYQQKPGKAPNLLIHPASTLQSGVPSRFSGSGSGTDFTLTISSLQPEDFATYYCQQANSFPLTFGGGTKVEIKR
*A* 0.00665
